From: paper PMC5540273

Listed here are molecules together with their documented %Inh.
Tested on: SYK
assay_setup: concentration: 1 μM, replicates: in singlicate; n = 1;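 also: KINOMEscan kinase panel screen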
# output: bare number, implied unit %

// known answers, use as guide
{"columns": ["smiles", "%Inh, %"],
 "data": [
  ["COc1cc2ncn(-c3cc(OCc4ccncc4)c(C(N)=O)s3)c2cc1OC", 26],
  ["CCCC(=O)Nc1n[nH]c2ncc(-c3cccc4ccccc34)cc12", 0],
  ["CN1C(=O)C(Nc2cc(Cl)c(O)c(Cl)c2)=C(c2ccc(Cl)cc2)C1=O", 0],
  ["Cc1nc(N(C)[C@H]2CN(C(=O)CC#N)CC[C@H]2C)c2cc[nH]c2n1", 0]
]}

Dear colleague, I am looking for the recorded %Inh of the following molecule: `Nc1ncnc2c1ncn2-c1cccc2ccccc12`
0

---

Test system: ABL1-nonphosphorylated
assay_setup: concentration: 1 μM, replicates: in singlicate; n = 1
Hi, to clarify the labels: Y covers %Inh from 1% upward, N covers anything below 1%.

Please review the following examples before continuing.
{"columns": ["molecule", "category_label"],
 "data": [
  ["Cc1nnc(-c2ccc3ncn(-c4ccc(S(C)=O)cc4)c3c2)o1 (stereo not shown)", "Y"],
  ["COc1cc(Nc2nccc(N3CCC(NC(=O)C4COc5ccccc5O4)C3)n2)cc(OC)c1OC (stereo not shown) [GSK1379761]", "N"],
  ["Cc1nnc(-c2ccc(C)c(-c3ccc(C(=O)O)cc3)c2)o1 [GW608005]", "N"],
  ["COC(=O)c1c(-c2ccccc2)c2cc(C)ccc2c(=O)n1Cc1ccccc1", "Y"],
  ["Cc1cccc(-c2cc(-c3c[nH]nc3-c3ccccn3)ccn2)c1 [GW679395]", "Y"]
]}

Record `Cc1ccc(Oc2ccc(Nc3ncnc4cc[nH]c34)cc2C)cn1` ; criterion: %Inh no lower than 1%. Met?
Y

Here is the next molecule: `CCC(=O)c1c(-c2ccccc2)c2cc(Cl)ccc2c(=O)n1Cc1cc(S(C)(=O)=O)n(CC(F)F)n1`
Y

---

Tested on: KIT-autoinhibited
assay_setup: concentration: 1 μM, replicates: in singlicate; n = 1
readout_type: %Inh (%)
# output: bare number, implied unit %

// known answers, use as guide
{"columns": ["compound", "system_tested", "units_text", "observed_measurement"],
 "data": [
  ["Cc1ccccc1COc1cc(-n2cnc3cc(Cl)ccc32)sc1C(N)=O [GW813349]", "KIT-autoinhibited", "%", 0],
  ["Cc1nnc(-c2ccc(C)c(-c3ccc(C(=O)O)cc3)c2)o1 [GW608005]", "KIT-autoinhibited", "%", 0],
  ["CN(C)c1cc(-c2ccc3c(N)n[nH]c3c2)nc(N)n1 [GSK2219329]", "KIT-autoinhibited", "%", 81],
  ["O=C1NC(=O)C(c2ccccc2)=C1Nc1cccc(O)c1 [SB-390534]", "KIT-autoinhibited", "%", 0],
  ["CCn1c(-c2ccoc2)nc2cnccc21 [SB-733887]", "KIT-autoinhibited", "%", 61]
]}

Form field: %Inh recorded for `CC(C)(C)c1ccc(C(=O)Nc2cn3cc(-c4ccccc4)ccc3n2)cc1` with KIT-autoinhibited (enter value)
0

Here is the next compound: Cl.NS(=O)(=O)c1cccc(Nc2cc(-c3ccc(F)cc3)n[nH]2)c1 [GW824645]
35

Here is the next compound: Cc1cc(Nc2nc(-c3cccc(C)n3)nc3ccccc23)ccn1 [GW872411]
2

Here is the next compound: `COc1cc(OC)cc(-c2cc3cnc(N)nc3nc2NC(=O)NC(C)(C)C)c1`
0

Here is the next compound: CCS(=O)c1ccc(-c2coc3ccc(-c4nnc(C)o4)cc23)cc1 (stereo not shown)
0

---

System: MERTK
assay_setup: concentration: 1 μM, replicates: in singlicate; n = 1
Listed here are compounds together with their documented %Inh.
# output: bare number, implied unit %

// known answers, use as guide
{"columns": ["compound", "readout_type", "observed_measurement"],
 "data": [
  ["COc1cc(Nc2nccc(N3CCC(NC(=O)C4COc5ccccc5O4)C3)n2)cc(OC)c1OC (stereo not drawn) [GSK1379761]", "%Inh", 36],
  ["COc1ccc(CNC(=O)NC2CCN(c3ccnc(Nc4ccc(F)cc4)n3)C2)cc1 (stereo not drawn) [GSK1379706]", "%Inh", 39],
  ["O=C(Nc1n[nH]c2nc(-c3ccccc3)c(Br)cc12)C1CC1 [SB-708998]", "%Inh", 27],
  ["Cc1ccc(-c2ccc3c(ccc4sc5c(c43)NC[C@@H](C)N=C5N(C)C)n2)cn1", "%Inh", 0]
]}

Dear colleague, I am looking for the recorded %Inh of the following compound: COc1cc2ncn(-c3cc(OCCCc4ccccc4)c(C(N)=O)s3)c2cc1OC [GSK205189]
0

Here is the next compound: Cc1ccccc1COc1cc(-n2cnc3cc(Cl)ccc32)sc1C(N)=O [GW813349]
16

Here is the next compound: `CCC(=O)c1c(-c2ccccc2)c2cc(Cl)ccc2c(=O)n1Cc1cc(S(C)(=O)=O)n(CC(N)=O)n1`
0

Here is the next compound: `CCC(=O)c1c(-c2ccccc2)c2cc(Cl)ccc2c(=O)n1Cc1ccc(C(=O)O)cc1`
0

Here is the next compound: OCCCNc1nccc(-c2c(-c3cccc(C(F)(F)F)c3)nn3cc(C(F)(F)F)ccc23)n1 [GW630813]
12

Here is the next compound: CCS(=O)(=O)c1ccc(OC)c(Nc2ncc(-c3ccc(F)cc3)o2)c1.Cl [GW591947]
28

Here is the next compound: O=C(NCc1cccs1)c1cc(C(=O)c2c(Cl)cccc2Cl)c[nH]1 [GW823670]
0

Here is the next compound: `CC(C)(C)c1ccc(C(=O)Nc2cn3cc(-c4ccccc4)ccc3n2)cc1`
0

Here is the next compound: Nc1n[nH]c2nnc(-c3ccccc3)c(-c3ccccc3)c12 [GW554060]
0

Here is the next compound: COc1ccc(Nc2nccc(N3CCC(NS(=O)(=O)c4ccc(NC(C)=O)cc4)C3)n2)cc1 (stereo not drawn) [GSK1379729]
25

Here is the next compound: COc1cc2ncn(-c3cc(OCc4ccc(S(C)(=O)=O)cc4)c(C(N)=O)s3)c2cc1OC [GW869979]
0

Here is the next compound: Nc1nccc2scc(-c3ccc4c(c3)CCN4C(=O)Cc3ccccc3)c12 [GSK2576924]
22

Here is the next compound: `Cc1ccc(Oc2ccc(Nc3ncnc4cc[nH]c34)cc2C)cn1`
0

Here is the next compound: Cc1nn2c(=O)cc(N3CCOCC3)nc2n1Cc1cccc(Cl)c1Cl [GSK2342769]
10

---

Test system: GRK2
Construct: gene ADRBK1
assay_setup: concentration: 1 μM, replicates: in singlicate; n = 1
Listed here are molecules together with their documented %Inh.
# output: bare number, implied unit %

Form field: %Inh recorded for `Cl.NS(=O)(=O)c1cccc(Nc2cc(-c3ccc(F)cc3)n[nH]2)c1` with GRK2 (enter value)
0

Here is the next molecule: `Cn1c(=O)c(F)c(Nc2ccc(I)cc2F)c2c(=O)n(OC[C@H](O)CO)cnc21`
0

Here is the next molecule: COc1cc(Nc2nccc(N3CCC(NC(=O)C4COc5ccccc5O4)C3)n2)cc(OC)c1OC (stereo not shown)
0

Here is the next molecule: `COc1cccc(C2=C(Nc3cccc(C(=O)O)c3)C(=O)NC2=O)c1`
0

Here is the next molecule: `Cc1cccc(-c2nc(Nc3ccc4c(cnn4C)c3)c3ccccc3n2)n1`
16

---

Tested on: PKN1
assay_setup: concentration: 1 μM, replicates: in singlicate; n = 1
Listed here are compounds together with their documented %Inh.
# output: bare number, implied unit %

// known answers, use as guide
{"columns": ["compound", "%Inh, %"],
 "data": [
  ["COc1cc2nccc(Nc3cccc(Oc4ccccc4)c3)c2cc1OC.Cl", 0],
  ["Nc1ncnc2c1ncn2-c1cccc(F)c1", 4],
  ["CCS(=O)c1ccc(-c2coc3ccc(-c4nnc(C)o4)cc23)cc1 (stereo not drawn)", 0],
  ["COc1ccc(Nc2nccc(N3CCC(NS(=O)(=O)c4ccc(NC(C)=O)cc4)C3)n2)cc1 (stereo not drawn)", 37],
  ["O=C1NC(=O)C(c2ccccc2)=C1Nc1cccc(O)c1", 0],
  ["COc1cc(Nc2nccc(N3CCC(NC(=O)C(C)c4ccc(Cl)cc4)C3)n2)cc(OC)c1OC (stereo not drawn)", 19],
  ["COc1cccc(-n2cnc3c(N)ncnc32)c1", 0],
  ["FC(F)(F)c1ccc(-c2ncn(CCCN3CCOCC3)c2-c2ccncc2)cc1", 43]
]}

We now examine a further compound.
Dear colleague, I am looking for the recorded %Inh of the following compound: `Cc1nc(N(C)[C@H]2CN(C(=O)CC#N)CC[C@H]2C)c2cc[nH]c2n1`
0

---

Listed here are compounds together with their documented %Inh.
Test system: CAMK2B
assay_setup: concentration: 1 μM, replicates: in singlicate; n = 1
# output: bare number, implied unit %

{"columns": ["compound", "units_text", "%Inh"],
 "data": [
  ["CCc1ccc(-c2ccc3c(c2)-c2nn(C)cc2S(=O)(=O)N3C)cc1", "%", 19],
  ["COC(=O)c1c(-c2ccccc2)c2cc(Br)ccc2c(=O)n1Cc1ccc(S(C)(=O)=O)cc1", "%", 6],
  ["COc1cc2ncn(-c3cc(OCCCc4ccccc4)c(C(N)=O)s3)c2cc1OC", "%", 0],
  ["CCn1c(-c2nonc2N)nc2ccccc21", "%", 0],
  ["Cc1nnc(-c2ccc3ncn(-c4ccc(S(C)=O)cc4)c3c2)o1 (stereo not shown)", "%", 0]
]}

Dear colleague, I am looking for the recorded %Inh of the following compound: `COC(=O)c1c(-c2ccccc2)c2cc(C)ccc2c(=O)n1Cc1ccccc1`
0

Here is the next compound: `O=C1NC(=O)C(c2ccccc2)=C1Nc1cccc(O)c1`
0
